Target: ClfB (Staphylococcus aureus, UniProt Q99R07)
Sequence (Q99R07 45-841): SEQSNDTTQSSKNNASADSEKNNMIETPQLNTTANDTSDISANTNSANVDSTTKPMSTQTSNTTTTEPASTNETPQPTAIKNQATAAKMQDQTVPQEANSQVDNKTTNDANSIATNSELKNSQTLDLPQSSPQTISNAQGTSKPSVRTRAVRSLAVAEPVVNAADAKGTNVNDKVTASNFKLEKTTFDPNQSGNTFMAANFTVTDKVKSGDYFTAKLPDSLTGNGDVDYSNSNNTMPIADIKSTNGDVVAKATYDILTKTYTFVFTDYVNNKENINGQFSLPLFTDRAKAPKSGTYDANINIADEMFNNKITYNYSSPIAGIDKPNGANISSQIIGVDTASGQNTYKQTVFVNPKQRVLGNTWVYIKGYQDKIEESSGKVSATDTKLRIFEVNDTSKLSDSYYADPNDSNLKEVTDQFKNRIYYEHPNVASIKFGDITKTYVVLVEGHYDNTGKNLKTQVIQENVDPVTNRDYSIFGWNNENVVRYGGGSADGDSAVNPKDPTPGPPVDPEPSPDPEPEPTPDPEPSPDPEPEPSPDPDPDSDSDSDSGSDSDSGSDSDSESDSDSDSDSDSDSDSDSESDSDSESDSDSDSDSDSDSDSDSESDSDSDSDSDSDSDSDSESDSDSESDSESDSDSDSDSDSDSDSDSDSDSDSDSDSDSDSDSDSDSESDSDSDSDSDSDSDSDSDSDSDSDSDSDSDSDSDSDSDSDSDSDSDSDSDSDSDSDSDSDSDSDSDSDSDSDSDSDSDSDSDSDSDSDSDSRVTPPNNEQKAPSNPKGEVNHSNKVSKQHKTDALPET
Assay type: cell-based, S. aureus
Set-up: expressed in transfected cells; host or cells: yeast Y2H reporter strain AH109
Settings: among 100 clones after two rounds of selection against ClfB
Identified X-times by sequencing values, listed per item
ASSAY METRIC: Identified X-times by sequencing

INSERT INTO results (sequence_string, observed) VALUES
  ('YSLGSSFGSGAGSSSFSRTSSSRAVVVKKIETRDGKLVSESSDVLPK [Frag 2-CDS]', 28),
  ('YSLGSSFGSGAGSSSFSRTSSSRAVVVKKIETRDGKLVSESSDVLPK [Frag 2]', 25),
  ('RAVVVKKIETRDGKLVSESSDVLPK [Frag 3]', 0),
  ('TYRKLLEGEESRLESGMQNMSIHTKTTSGYAGGLSSAYGGLTSPGLSYSLGSSFGSGAGSSSFSRTSSSRAVVVKKIETRDGKLVSESSDVLPK [Frag 1]', 12),
  ('YSLGSSFGSGAGSSSFSRTSSSRAVVVK [Frag 2-binding domain]', 18),
  ('QELMNVKLALDIEIATYRKLLEGEESRLESGMQNMSIHTKTTSGYAGGLSSAYGGLTSPGLSYSLGSSFGSGAGSSSFSRTSSSRAVVVKKIETRDGKLVSESSDVLPK [Clone 10.1]', 8);
